Data provenance is ChEMBL document CHEMBL1145968.

Species on record: Cavia porcellus
Test: Inhibition of the electrically induced muscle contractions was determined using the guinea pig ileum
Format: functional
Details: Cavia porcellus, Ileum
// pEC50 lookup, one value per entry
# log scale: pEC50 equals minus log10 of the concentration in mol/L

Record excerpt, results attached:
{"compound": "C=CCN1C[C@H](C)N([C@H](c2cccc(O)c2)c2cccc(C(=O)N(CC)CC)c2)C[C@H]1C", "pEC50": 8.36}
{"compound": "C=CCN1C[C@H](C)N([C@@H](c2cccc(O)c2)c2cccc(C(=O)N(C)CCc3ccccc3)c2)C[C@H]1C", "pEC50": 8.18}
{"compound": "C=CCN1C[C@H](C)N([C@@H](c2cccc(O)c2)c2cccc(C(=O)N(CCC)c3ccccc3)c2)C[C@H]1C", "pEC50": 7.74}

Task: Which pEC50 reading was recorded for the compound `C=CCN1C[C@H](C)N([C@@H](c2cccc(O)c2)c2cccc(C(=O)N(CCC)c3ccc(F)cc3)c2)C[C@H]1C` ?
Output: 5.98
